# System: P. vulgaris ATCC 33420
Catalogue of molecules with associated MIC

Recorded MIC, per entry:
{"molecule": "CC1(C)SC2C(NC(=O)C(NC(=O)C3=C(O)C(Cc4ccco4)NC3=O)c3ccccc3)C(=O)N2C1C(=O)O (stereo not shown) [Compound 3002]", "metric name": "MIC", "recorded result": "25 µg/mL"}
{"molecule": "CC1(C)SC2C(NC(=O)C(NC(=O)C3=C(O)CN(c4ccccc4)C3=O)c3ccccc3)C(=O)N2C1C(=O)O (stereo not shown) [Compound 2919]", "metric name": "MIC", "recorded result": "25 µg/mL"}
{"molecule": "CC1(C)SC2C(NC(=O)C(NC(=O)C3=C(O)CNC3=O)c3ccccc3)C(=O)N2C1C(=O)O (stereo not shown) [Compound 2743]", "metric name": "MIC", "recorded result": "100 µg/mL"}
{"molecule": "CC1(C)SC2C(NC(=O)C(NC(=O)C3=C(O)C(Cc4ccc(O)cc4)NC3=O)c3ccccc3)C(=O)N2C1C(=O)O (stereo not shown) [Compound 2918]", "metric name": "MIC", "recorded result": "6.25 µg/mL"}
{"molecule": "CC(C)C1NC(=O)C(C(=O)NC(C(=O)NC2C(=O)N3C2SC(C)(C)C3C(=O)O)c2ccccc2)=C1O (stereo not shown) [Compound 2744]", "metric name": "MIC", "recorded result": "12.5 µg/mL"}
{"molecule": "CC1(C)SC2C(NC(=O)C(NC(=O)C3=C(O)C(c4ccccc4)NC3=O)c3ccccc3)C(=O)N2C1C(=O)O (stereo not shown) [Compound 2745]", "metric name": "MIC", "recorded result": "12.5 µg/mL"}

Then there is this molecule:
Report MIC for CC1(C)S[C@@H]2[C@H](NC(=O)C(C(=O)O)c3ccccc3)C(=O)N2[C@H]1C(=O)O (stereo partly shown) [carbenicillin, reference compound] tested on P. vulgaris ATCC 33420. 100 µg/mL
